assay: physchem; conditions: octan-1-ol/water, pH 7.4, LogD7.4
Please note: 1 (yes) applies when logD is 3 or greater, and 0 (no) applies otherwise.

Test whether the compound O=C1[C@@H]2[C@@H]3CC[C@@H](C3)[C@@H]2C(=O)N1[C@H]1CC[C@H](C(=O)Nc2cccc3cccnc23)CC1 records logD of 3 or higher.
1 (yes)

Test whether the compound Cc1cc(N)c2cc(NC(=O)CCC(=O)Nc3ccc4nc(C)cc(N)c4c3)ccc2n1 records logD of 3 or higher.
0 (no)

Test whether the compound O=C(Nc1ccc([N+](=O)[O-])cc1O)Nc1ccccc1Br records logD of 3 or higher.
1 (yes)

Test whether the compound COc1ccc2ncc(F)c(CCN3CCC(NCc4cc5c(cn4)OCCO5)CC3)c2n1 records logD of 3 or higher.
0 (no)

Test whether the compound CCOc1ccc(-n2c([C@@H](C)N(Cc3cccnc3)C(=O)Cc3ccc(OC(F)(F)F)cc3)nc3ncccc3c2=O)cc1 records logD of 3 or higher.
1 (yes)

Test whether the compound COc1ccc(CN2C(=O)CCC2(C)C(=O)NC2CCCCC2)c(OC)c1 (configuration not stated) records logD of 3 or higher.
0 (no)

Test whether the compound N#Cc1ccc(C(=O)N2CCC3(CC2)N=C(N)c2c(F)ccc(F)c2N3)cn1 records logD of 3 or higher.
0 (no)

Test whether the compound O=c1oc2cc(O)ccc2cc1-c1ccc(O)cc1 records logD of 3 or higher.
0 (no)

Test whether the compound CN(C)CC1CCn2c(c(C3=C(c4cn(C)c5ccccc45)C(=O)NC3=O)c3ccccc32)C1 (configuration not stated) records logD of 3 or higher.
0 (no)

Test whether the compound COc1cc(-n2nnc3cc(-c4ccc(Cl)cc4)sc3c2=O)ccc1N1CC[C@@H](O)C1 records logD of 3 or higher.
1 (yes)

Test whether the compound CSCc1cc(N2CCOCC2)nc(-c2ccccc2)n1 records logD of 3 or higher.
1 (yes)

Test whether the compound C=CCCCCCCCCC(=O)N[C@H]1CCC(=O)NC1=O records logD of 3 or higher.
0 (no)

Test whether the compound CC(C)(N)C(=O)N[C@H](Cc1c[nH]c2ccccc12)C(=O)N[C@H](Cc1c[nH]c2ccccc12)NC=O records logD of 3 or higher.
0 (no)

Test whether the compound OCC[C@@]1(c2ccc(Cl)c(Cl)c2)CCCNC1 records logD of 3 or higher.
0 (no)

Test whether the compound COc1cc(-c2ccncc2)cc2cnc(Nc3ccc([C@@H](C)NC(C)=O)cc3)nc12 records logD of 3 or higher.
0 (no)

Test whether the compound CS(=O)(=O)N1CCC(NC(=O)NC23CC4CC(CC(C4)C2)C3)CC1 records logD of 3 or higher.
0 (no)

Test whether the compound COc1ccc(-c2cc3c(N[C@H]4CCCNC4)ncc(C(N)=O)c3s2)cc1 records logD of 3 or higher.
0 (no)

====

experiment: in vitro; details: human, plasma, PPB
Lab note: cut-off is 0.03. Strictly less in fraction unbound at 5 h is YES. Exactly 0.03 or more is NO.

Hi there! Is fraction unbound at 5 h for COc1ccc(-c2nc3c(NCCCNC(C)=O)c(Br)cnc3[nH]2)cc1 below 0.03, do you know?
YES

Hi there! Is fraction unbound at 5 h for CC1(C)[C@@H]2CC[C@@]1(CS(=O)(=O)N1CCN(c3ccc(C(F)(F)F)cn3)CC1)C(=O)C2 below 0.03, do you know?
YES

Hi there! Is fraction unbound at 5 h for O=C(O)COn1c(-c2ccccc2)nc2ccc([N+](=O)[O-])cc21 below 0.03, do you know?
YES

Hi there! Is fraction unbound at 5 h for Cc1ccc(S(=O)(=O)Nc2c(C(=O)N[C@@H](C)C(C)(C)C)c(C)nn2C2CCSCC2)cc1 below 0.03, do you know?
NO

Hi there! Is fraction unbound at 5 h for O=C(Nc1nc2ccccc2n1CCCO)c1cccc([N+](=O)[O-])c1 below 0.03, do you know?
NO

Hi there! Is fraction unbound at 5 h for CCS(=O)(=O)c1ccc(-c2cc(C(F)(F)F)ccc2CCC(=O)O)c(C)c1 below 0.03, do you know?
YES

Numbers sourced from ChEMBL document CHEMBL3301361.
